Reported remaining at 1.5 h by item:
Test: Metabolic stability in rat liver microsomes assessed as parent compound remaining after 90 mins in presence of NADPH by HPLC analysis
Format: ADME
Conditions: liver microsomes, read-out: Stability
Expressed in %, but write only the number.

Worked examples, 2 compounds total:
COc1ccc2[nH]c3c4c(c(C)cc3c2c1)OC(C)(C)C=C4 = 58
COc1cc2[nH]c3c4c(c(C)cc3c2cc1OC)OC(C)(C)C=C4 = 79

remaining at 1.5 h lookup needed for COc1ccc2c(c1)[nH]c1c3c(c(C)cc12)OC(C)(C)C=C3 , thanks.
67

###

Assay: Cmax in Sprague-Dawley rat plasma at 100 mg/kg, po administered as single dose measured up to 48 hrs post dose by LC-MS/MS analysis
Type: ADME, organism-based
Parameters: dose 100 mg/kg, route oral
Reported Cmax by item:

COc1ccc2[nH]c3c4c(c(C)cc3c2c1)OC(C)(C)C=C4 [KOENIMBINE] = 1810 nM

Cmax lookup needed for COc1cc2[nH]c3c4c(c(C)cc3c2cc1OC)OC(C)(C)C=C4 , thanks.
2820 nM
